- Tested on: HEK-293T
- TEST_METHOD_NOTES: Multiplex assay against HEK293T
- Assay type: toxicity, cell-based
- CONDITION_SET: human, 48 h, 10 µM, compound concentration 10 uM, replicate 1
READOUT_NAME: Population Tubulin-Different-Phenotype (%)

MOLECULE	ASSAY_TARGET	EXPERIMENTAL_RESULT
CC(C)c1noc(N2CCC(COc3ccc(-c4ccc(S(C)(=O)=O)cc4)nc3)CC2)n1	HEK-293T	28
CN[C@@H](C)C(=O)N[C@H](C(=O)N1CCC[C@H]1C(=O)Nc1snnc1-c1ccccc1)C1CCCCC1	HEK-293T	55
Cc1onc(-c2ccccc2Cl)c1C(=O)N(C)c1ccc(Cl)cc1	HEK-293T	15
Cc1c(CC(=O)O)c2cccnc2n1Cc1ccc(S(C)(=O)=O)cc1C(F)(F)F	HEK-293T	14
O=C(NCCN1CCC(n2c(=O)[nH]c3cc(Cl)ccc32)CC1)c1ccc(F)cc1 [HALOPEMIDE]	HEK-293T	55
O=C1[C@H](Cc2ccc(O)cc2)N2C(=O)CCN(C(=O)NCc3ccccc3)[C@H]2CN1Cc1cccc2ccccc12	HEK-293T	63
Cc1sc2c(c1C)C(c1ccc(Cl)cc1)=N[C@@H](CC(=O)NCCCCCCCCNC(=O)COc1cccc3c1C(=O)N(C1CCC(=O)NC1=O)C3=O)c1nnc(C)n1-2 (stereo partly drawn)	HEK-293T	17
CCCCC(=O)N(Cc1ccc(-c2ccccc2-c2nnn[nH]2)cc1)[C@H](C(=O)O)C(C)C	HEK-293T	8
CCCCC1=NC2(CCCC2)C(=O)N1Cc1ccc(-c2ccccc2-c2nnn[nH]2)cc1	HEK-293T	15
C[C@H](N)COC(=O)[C@@H](CCCCN)NC(=O)Cc1c(-c2ccc3ccccc3c2)[nH]c2c1ccc1ccccc12	HEK-293T	33
CCCOc1ccc2[nH]cc(C3=CCNCC3)c2n1.Cl	HEK-293T	23
O=C(CCCc1ccccc1)Nc1nc2ccccc2c(=O)s1	HEK-293T	16
CCCCCC(O)/C=C/[C@H]1C(=O)CC(O)C1C/C=C\CCCC(=O)O (stereo partly drawn)	HEK-293T	7
COc1ccccc1N1CCN(C[C@@H](C(=O)NC(C)(C)C)c2ccccc2)CC1.Cl.Cl	HEK-293T	44
N#Cc1cc(F)cc(-c2nc(-c3ccc(F)cn3)no2)c1	HEK-293T	9
CN1CCN(c2cc(-c3ccccc3)nc(N)n2)CC1	HEK-293T	14
CC[C@@H](C)Nc1nc(C)nc2c(-c3ccc(OC)nc3C)c(C)nn12	HEK-293T	38
CCc1cc2cc(NS(=O)(=O)c3ccc(C#N)cc3)ccc2n(CC)c1=O	HEK-293T	20
